// provenance: patent US20220178931A1

Measured Ki, listed per entry.
# PROTOCOL DETAILS: DPH displacement from alpha-helical barrel, competitive inhibition assay, analyte beta-carotene
# CONDITIONS USED: barrel incubated with DPH or TMA-DPH; analyte 0.05-300 μM; fluorescence; dash = no competitive binding observed; read-out: B-carotene K1
# Experimental: The four analytes below were selected based on having hydrophobic properties and being able to adopt an elongate configuration, as these were postulated to have the best chance of displacing a reporter dye. DPH was used as the reporter dye, and displacement of DPH was recorded using a standard competitive inhibition assay. In other words, the ability of an analyte to inhibit DPH binding was recorded by the inhibition constant Ki. […] Analyte was added (0.05-300 μM) and the fluorescence signal measured.
READOUT NAME: Ki

[
  {
    "CONSTRUCT SEQUENCE": "GELKAIAQELKAIAKELKAIAWELKAIAQG [CC-Hex, 6 helices in barrel]",
    "READOUT NAME": "Ki",
    "TEST VALUE": "> 300 µM"
  },
  {
    "CONSTRUCT SEQUENCE": "GEIAQALREIAKALREIAWALREIAQALRG [CC-Hept, 7 helices in barrel]",
    "READOUT NAME": "Ki",
    "TEST VALUE": "12.1 µM"
  },
  {
    "CONSTRUCT SEQUENCE": "GKIEQILQKIEKILQKIEWILQKIEQILQG [CC-Pent, alpha helix self-assembling into alpha-helical barrel]",
    "READOUT NAME": "Ki",
    "TEST VALUE": "> 300 µM"
  },
  {
    "CONSTRUCT SEQUENCE": "GEIAKSLKEIAKSLKEIAWSLKEIAKSLKG [CC-Hex2, 6 helices in barrel]",
    "READOUT NAME": "Ki",
    "TEST VALUE": "> 300 µM"
  }
]

----------
# PROTOCOL DETAILS: DPH displacement from alpha-helical barrel, competitive inhibition assay, analyte retinol
# Assay type: binding
# CONDITIONS USED: barrel incubated with DPH or TMA-DPH; analyte 0.05-300 μM; fluorescence; read-out: Retinol K1
pKi: −log10 of the molar value.

[
  {
    "CONSTRUCT SEQUENCE": "GELKAIAQELKAIAKELKAIAWELKAIAQG [CC-Hex, 6 helices in barrel]",
    "pKi": 5.19
  },
  {
    "CONSTRUCT SEQUENCE": "GKIEQILQKIEKILQKIEWILQKIEQILQG [CC-Pent, alpha helix self-assembling into alpha-helical barrel]",
    "pKi": 4.83
  },
  {
    "CONSTRUCT SEQUENCE": "GEIAKSLKEIAKSLKEIAWSLKEIAKSLKG [CC-Hex2, 6 helices in barrel]",
    "pKi": 5.34
  },
  {
    "CONSTRUCT SEQUENCE": "GEIAQALREIAKALREIAWALREIAQALRG [CC-Hept, 7 helices in barrel]",
    "pKi": 5.40
  }
]

----------
Measured Ki, listed per entry.
# PROTOCOL DETAILS: DPH displacement from alpha-helical barrel, competitive inhibition assay, analyte farnesol
# CONDITIONS USED: barrel incubated with DPH or TMA-DPH; analyte 0.05-300 μM; fluorescence; dash = no competitive binding observed; read-out: Famesol K1

[
  {
    "CONSTRUCT SEQUENCE": "GKIEQILQKIEKILQKIEWILQKIEQILQG [CC-Pent, alpha helix self-assembling into alpha-helical barrel]",
    "Ki": "> 300 µM"
  },
  {
    "CONSTRUCT SEQUENCE": "GEIAQALREIAKALREIAWALREIAQALRG [CC-Hept, 7 helices in barrel]",
    "Ki": "0.6 µM"
  },
  {
    "CONSTRUCT SEQUENCE": "GELKAIAQELKAIAKELKAIAWELKAIAQG [CC-Hex, 6 helices in barrel]",
    "Ki": "23.9 µM"
  },
  {
    "CONSTRUCT SEQUENCE": "GEIAKSLKEIAKSLKEIAWSLKEIAKSLKG [CC-Hex2, 6 helices in barrel]",
    "Ki": "8.6 µM"
  }
]

----------
# PROTOCOL DETAILS: DPH displacement from alpha-helical barrel, competitive inhibition assay, analyte palmitic acid
# Format: binding
# CONDITIONS USED: barrel incubated with DPH or TMA-DPH; analyte 0.05-300 μM; fluorescence; read-out: Palmitic acid K1
# Experimental: The four analytes below were selected based on having hydrophobic properties and being able to adopt an elongate configuration, as these were postulated to have the best chance of displacing a reporter dye. DPH was used as the reporter dye, and displacement of DPH was recorded using a standard competitive inhibition assay. In other words, the ability of an analyte to inhibit DPH binding was recorded by the inhibition constant Ki. […] Analyte was added (0.05-300 μM) and the fluorescence signal measured.
pKi: −log10 of the molar value.
READOUT NAME: pKi

[
  {
    "CONSTRUCT SEQUENCE": "GEIAQALREIAKALREIAWALREIAQALRG [CC-Hept, 7 helices in barrel]",
    "READOUT NAME": "pKi",
    "TEST VALUE": 6.05
  },
  {
    "CONSTRUCT SEQUENCE": "GELKAIAQELKAIAKELKAIAWELKAIAQG [CC-Hex, 6 helices in barrel]",
    "READOUT NAME": "pKi",
    "TEST VALUE": 6.00
  },
  {
    "CONSTRUCT SEQUENCE": "GKIEQILQKIEKILQKIEWILQKIEQILQG [CC-Pent, alpha helix self-assembling into alpha-helical barrel]",
    "READOUT NAME": "pKi",
    "TEST VALUE": 5.96
  },
  {
    "CONSTRUCT SEQUENCE": "GEIAKSLKEIAKSLKEIAWSLKEIAKSLKG [CC-Hex2, 6 helices in barrel]",
    "READOUT NAME": "pKi",
    "TEST VALUE": 5.96
  }
]

----------
# PROTOCOL DETAILS: Prodan reporter dye binding to alpha-helical barrel lumen (fluorescence titration)
# CONDITIONS USED: prodan 1 μM incubated with alpha-helical barrel 0.5-500 μM for up to 2 hours; fluorescent signal; dash = did not bind
pKd: −log10 of the molar value.

[
  {
    "CONSTRUCT SEQUENCE": "GELKAIAQELKAIAKELKAIAWELKAIAQG [CC-Hex, 6 helices in barrel]",
    "READING QUALIFIER": "<",
    "pKd": 3.30
  },
  {
    "CONSTRUCT SEQUENCE": "GEIAQALREIAKALREIAWALREIAQALRG [CC-Hept, 7 helices in barrel]",
    "READING QUALIFIER": "=",
    "pKd": 4.39
  },
  {
    "CONSTRUCT SEQUENCE": "GEIAKSLKEIAKSLKEIAWSLKEIAKSLKG [CC-Hex2, 6 helices in barrel]",
    "READING QUALIFIER": "=",
    "pKd": 4.41
  },
  {
    "CONSTRUCT SEQUENCE": "GKIEQILQKIEKILQKIEWILQKIEQILQG [CC-Pent, alpha helix self-assembling into alpha-helical barrel]",
    "READING QUALIFIER": "<",
    "pKd": 3.30
  }
]

----------
# PROTOCOL DETAILS: DPH reporter dye binding to alpha-helical barrel lumen (fluorescence titration)
# CONDITIONS USED: DPH 1 μM incubated with alpha-helical barrel 0.5-500 μM for up to 2 hours; fluorescent signal
pKd: −log10 of the molar value.
Measured pKd, listed per entry.

[
  {
    "CONSTRUCT SEQUENCE": "GEIAQALREIAKALREIAWALREIAQALRG [CC-Hept, 7 helices in barrel]",
    "pKd": 5.05
  },
  {
    "CONSTRUCT SEQUENCE": "GEIAKSLKEIAKSLKEIAWSLKEIAKSLKG [CC-Hex2, 6 helices in barrel]",
    "pKd": 5.02
  },
  {
    "CONSTRUCT SEQUENCE": "GELKAIAQELKAIAKELKAIAWELKAIAQG [CC-Hex, 6 helices in barrel]",
    "pKd": 5.15
  },
  {
    "CONSTRUCT SEQUENCE": "GKIEQILQKIEKILQKIEWILQKIEQILQG [CC-Pent, alpha helix self-assembling into alpha-helical barrel]",
    "pKd": 4.65
  }
]
